# SYSTEM UNDER TEST: Matrix metalloproteinase-9 (Homo sapiens) (UniProt P14780)
# Sequence (P14780 whole entry): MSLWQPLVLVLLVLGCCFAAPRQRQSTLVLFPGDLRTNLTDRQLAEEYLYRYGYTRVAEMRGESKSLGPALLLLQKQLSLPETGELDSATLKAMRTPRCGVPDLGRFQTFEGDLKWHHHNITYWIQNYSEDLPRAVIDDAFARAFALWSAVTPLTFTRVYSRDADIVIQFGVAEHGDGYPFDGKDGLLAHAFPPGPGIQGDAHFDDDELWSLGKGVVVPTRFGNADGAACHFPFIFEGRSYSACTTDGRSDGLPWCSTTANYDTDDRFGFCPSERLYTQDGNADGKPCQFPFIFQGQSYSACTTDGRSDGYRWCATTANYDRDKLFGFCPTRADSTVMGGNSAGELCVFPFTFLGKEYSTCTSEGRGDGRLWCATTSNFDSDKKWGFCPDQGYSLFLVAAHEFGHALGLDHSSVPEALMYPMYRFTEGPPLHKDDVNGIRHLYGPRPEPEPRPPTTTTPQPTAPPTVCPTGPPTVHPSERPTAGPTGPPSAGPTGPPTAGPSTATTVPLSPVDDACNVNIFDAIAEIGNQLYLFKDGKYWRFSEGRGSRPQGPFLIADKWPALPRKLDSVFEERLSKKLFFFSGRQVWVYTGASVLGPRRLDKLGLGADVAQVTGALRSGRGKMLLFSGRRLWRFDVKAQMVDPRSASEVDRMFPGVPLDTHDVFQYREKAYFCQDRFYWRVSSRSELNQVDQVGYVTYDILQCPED
# PROTOCOL: Inhibition of MMP9 at 10 uM by fluorimetric assay
# Set-up: scale not given: the % may be the effect or the level left
VALUE KIND: Activity (%)
Respond numerically; units are % and should not be typed.

Below, 5 molecules whose answers are already recorded.
CHEMICAL STRING	VALUE KIND	READOUT UNITS	RESULT NUMBER
CC(C)C[C@H](CCCNC(=O)[C@H](Cc1ccccc1)NC(=O)c1ccc(F)cc1)C(=O)N[C@@H](CCCNC(=N)N)C(=O)N[C@@H](Cc1c[nH]c2ccccc12)C(N)=O	Activity	%	102
CC(C)C/C(=C\[C@@H](O)CNC(=O)[C@H](Cc1ccccc1)NC(=O)c1ccc(F)cc1)C(=O)N[C@@H](CCCNC(=N)N)C(=O)N[C@@H](Cc1c[nH]c2ccccc12)C(N)=O	Activity	%	104
CC(C)C[C@H](/C=C/CNC(=O)[C@H](Cc1ccccc1)NC(=O)c1ccc(F)cc1)C(=O)N[C@@H](CCCNC(=N)N)C(=O)N[C@@H](Cc1c[nH]c2ccccc12)C(N)=O	Activity	%	101
CC(C)C/C(=C\CCNC(=O)[C@H](Cc1ccccc1)NC(=O)c1ccc(F)cc1)C(=O)N[C@@H](CCCNC(=N)N)C(=O)N[C@@H](Cc1c[nH]c2ccccc12)C(N)=O	Activity	%	98.9
CC(C)C[C@H](C[C@H](O)CNC(=O)[C@H](Cc1ccccc1)NC(=O)c1ccc(F)cc1)C(=O)N[C@@H](CCCNC(=N)N)C(=O)N[C@@H](Cc1c[nH]c2ccccc12)C(N)=O	Activity	%	103

Record for `CC(C)C[C@@H](C[C@@H](O)CNC(=O)[C@H](Cc1ccccc1)NC(=O)c1ccc(F)cc1)C(=O)N[C@@H](CCCNC(=N)N)C(=O)N[C@@H](Cc1c[nH]c2ccccc12)C(N)=O` under target or system Matrix metalloproteinase-9 (Homo sapiens) (UniProt P14780): Activity reported as 108
